Attribution: patent US11389456B2

assay: Metabolic stability in human liver microsomal preparation; type: in vitro ADME; settings: pH 7.4; human liver microsomes, NADPH, 37° C.
observation.type: CLint scaled at 1 μM (mL/min/kg)
Please reply with the bare figure in mL/min/kg and do not write the unit itself.

Examples with answers:
1. O=C(O)c1[nH]nnc1Oc1ccc(-c2ccc(Cl)c(Cl)c2)cc1    14.4
2. CCC(CC)c1ccc(Oc2[nH]nnc2C(=O)O)cc1    65.3
3. O=C(O)c1nn[nH]c1Oc1ccc(C2CCCC2)cc1    18.6
4. O=C(O)c1nn[nH]c1Oc1cccc(-c2ccc3ccccc3c2)c1    7.08
5. O=C(O)c1nn[nH]c1Oc1cccc(-c2ccccc2)c1    5

I am curious: what CLint scaled at 1 μM value has been reported for O=C(O)c1nn[nH]c1Sc1ccc(-c2ccccc2)cc1 ? 10.1

Can you handle COc1ccc(-c2cccc(Oc3[nH]nnc3C(=O)O)c2)cc1 next? 8.95

Same question for O=C(O)c1nn[nH]c1Oc1ccc2ccccc2c1 please. 2.1

Now the same for O=C(O)c1nn[nH]c1Sc1ccc(Cl)cc1 1.19

Can you check O=C(O)c1nn[nH]c1Oc1ccc(-c2ccc(F)cc2)cc1 next? 6.99

For COc1ccc(-c2ccc(Oc3[nH]nnc3C(=O)O)cc2)cc1OC then? 2.72
